Biological target: Human GPR119 (Homo sapiens, UniProt Q8TDV5)
Construct: host or cells: HEK293 (ATCC)
Test: Human GPR119 activation assay (cAMP, HTRF)
Format: cell-based
Conditions: 1 h; 1 nM; HEK293 cells transiently expressing human GPR119; relative to maximum effect of OEA; read-out: hGPR119 activation ability (cAMP assay) Relative Response % vs OEA

{"sample-smiles": "Cc1nc(-c2c(F)cc(OCCCC3CCN(c4ncc(-c5noc(CC(C)C)n5)cn4)CC3)cc2F)no1", "unit-of-measurement": "%", "Emax at 0.001 µM": 103}
{"sample-smiles": "CCc1cnc(N2CCC(CCCOc3cc(F)c(-c4nnc(NC(C)C)o4)c(F)c3)CC2)nc1", "unit-of-measurement": "%", "Emax at 0.001 µM": 156}
{"sample-smiles": "CCc1cnc(N2CCC(CCCOc3cc(F)c(-c4noc(C(C)(C)CO)n4)c(F)c3)CC2)nc1", "unit-of-measurement": "%", "Emax at 0.001 µM": 54.9}
{"sample-smiles": "CCCc1noc(N2CCC(CCCOc3cc(F)c(-c4nnc(C(C)C)o4)c(F)c3)CC2)n1", "unit-of-measurement": "%", "Emax at 0.001 µM": 75.1}
{"sample-smiles": "Cc1nnc(-c2c(F)cc(OCCCC3CCN(c4cnc(Cl)cn4)CC3)cc2F)o1", "unit-of-measurement": "%", "Emax at 0.001 µM": 83.4}
{"sample-smiles": "CCc1cnc(N2CCC(CCCOc3cc(F)c(C4=NCC(C)(C)O4)c(F)c3)CC2)nc1", "unit-of-measurement": "%", "Emax at 0.001 µM": 33.5}
{"sample-smiles": "CC(C)c1nnc(-c2c(F)cc(OCCCC3CCN(c4ncc(C(F)(F)F)cn4)CC3)cc2F)o1", "unit-of-measurement": "%", "Emax at 0.001 µM": 163}
{"sample-smiles": "CC(C)c1nnc(-c2c(F)cc(OCCCC3CCN(c4ccc(C(F)(F)F)cn4)CC3)cc2F)s1", "unit-of-measurement": "%", "Emax at 0.001 µM": 78.1}
{"sample-smiles": "CCc1cnc(N2CCC(CCCOc3cc(F)c(C4=NC[C@@H](C)O4)c(F)c3)CC2)nc1", "unit-of-measurement": "%", "Emax at 0.001 µM": 44.6}
{"sample-smiles": "CC(C)c1nc(-c2c(F)cc(OCCCC3CCN(c4ncc(C(F)(F)F)cn4)CC3)cc2F)no1", "unit-of-measurement": "%", "Emax at 0.001 µM": 159}
{"sample-smiles": "CCc1cnc(N2CCC(CCCOc3cc(F)c(-c4noc(C[C@@H](C)O)n4)c(F)c3)CC2)nc1", "unit-of-measurement": "%", "Emax at 0.001 µM": 235}
{"sample-smiles": "CCc1cnc(N2CCC(CCCOc3cc(F)c(C4=NC[C@@H](CO)O4)c(F)c3)CC2)nc1", "unit-of-measurement": "%", "Emax at 0.001 µM": 144}
{"sample-smiles": "CCc1cnc(N2CCC(CCCOc3cc(F)c(-c4noc(C(C)(C)C)n4)c(F)c3)CC2)nc1", "unit-of-measurement": "%", "Emax at 0.001 µM": 108}
{"sample-smiles": "CC(C)Cc1nc(-c2cnc(N3CCC(CCCOc4cc(F)c(C5=NC[C@@H](C)O5)c(F)c4)CC3)nc2)no1", "unit-of-measurement": "%", "Emax at 0.001 µM": 97.1}

----------
The reader will find reported inhibition in vivo at 10 mg/kg values listed item by item below.
System: C57BL/6 mouse
Experiment: Assessment of glucose tolerance improvement effect in mouse
Type: in vivo
Settings: 2 h; 10 mg/kg oral, 30 min before oral glucose 2 g/kg; male C57BL/6 mouse; blood glucose AUC

{"sample-smiles": "CC(C)c1noc(N2CCC(CCCOc3cc(F)c(C4=NC[C@H](C)O4)c(F)c3)CC2)n1", "inhibition in vivo at 10 mg/kg": "< 30%"}
{"sample-smiles": "CCc1nnc(-c2c(F)cc(OCCCC3CCN(c4ncc(C(F)(F)F)cn4)CC3)cc2F)o1", "inhibition in vivo at 10 mg/kg": "> 40%"}
{"sample-smiles": "CCc1cnc(N2CCC(CCCOc3cc(F)c(-c4noc(C(C)C)n4)c(F)c3)CC2)nc1", "inhibition in vivo at 10 mg/kg": "> 40%"}
{"sample-smiles": "CC(C)c1nc(-c2c(F)cc(OCCCC3CCN(c4ncc(Cl)cn4)CC3)cc2F)no1", "inhibition in vivo at 10 mg/kg": "< 30%"}
{"sample-smiles": "CCc1cnc(N2CCC(CCCOc3cc(F)c(-c4nnc(CC)o4)c(F)c3)CC2)nc1", "inhibition in vivo at 10 mg/kg": "> 40%"}
{"sample-smiles": "CC(C)c1noc(N2CCC(CCCOc3cc(F)c(-c4nnc(C(C)C)o4)c(F)c3)CC2)n1", "inhibition in vivo at 10 mg/kg": "30 to 40%"}

----------
Target: Human GPR119 (Homo sapiens)
Construct: host or cells: HEK293 (ATCC)
Assay: Human GPR119 activation assay (cAMP, HTRF)
Format: cell-based
Conditions: 1 h; 10 nM; HEK293 cells transiently expressing human GPR119; relative to maximum effect of OEA; read-out: hGPR119 activation ability (cAMP assay) Relative Response % vs OEA

{"compound": "CCc1cnc(N2CCC(CCCOc3cc(F)c(-c4nnc(C(C)C)s4)c(F)c3)CC2)nc1 [Example 60]", "unit-of-measurement": "%", "Emax at 0.01 µM": 516}
{"compound": "CC(C)c1nc(-c2c(F)cc(OCCCC3CCN(c4ncc(Br)cn4)CC3)cc2F)no1 [Example 29]", "unit-of-measurement": "%", "Emax at 0.01 µM": 173}
{"compound": "CC(C)c1nnc(-c2c(F)cc(OCCCC3CCN(c4cnc(Cl)cn4)CC3)cc2F)o1 [Example 51]", "unit-of-measurement": "%", "Emax at 0.01 µM": 180}
{"compound": "CCc1nnc(-c2c(F)cc(OCCCC3CCN(c4cnc(Cl)cn4)CC3)cc2F)o1 [Example 50]", "unit-of-measurement": "%", "Emax at 0.01 µM": 308}
{"compound": "CCc1cnc(N2CCC(CCCOc3cc(F)c(C4=NC[C@@H](C)O4)c(F)c3)CC2)nc1 [Example 5]", "unit-of-measurement": "%", "Emax at 0.01 µM": 150}
{"compound": "CCCc1noc(N2CCC(CCCOc3cc(F)c(-c4nnc(CC)o4)c(F)c3)CC2)n1 [Example 53]", "unit-of-measurement": "%", "Emax at 0.01 µM": 154}
{"compound": "CCc1cnc(N2CCC(CCCOc3cc(F)c(C4=NC[C@@H](CO)O4)c(F)c3)CC2)nc1 [Example 8]", "unit-of-measurement": "%", "Emax at 0.01 µM": 393}
{"compound": "Cc1nc(-c2c(F)cc(OCCCC3CCN(c4nc(C(C)C)no4)CC3)cc2F)no1 [Example 39]", "unit-of-measurement": "%", "Emax at 0.01 µM": 201}

----------
Molecular target: Human GPR119 (Homo sapiens, UniProt Q8TDV5)
Construct: host or cells: HEK293 (ATCC)
Sequence (Q8TDV5 1-335): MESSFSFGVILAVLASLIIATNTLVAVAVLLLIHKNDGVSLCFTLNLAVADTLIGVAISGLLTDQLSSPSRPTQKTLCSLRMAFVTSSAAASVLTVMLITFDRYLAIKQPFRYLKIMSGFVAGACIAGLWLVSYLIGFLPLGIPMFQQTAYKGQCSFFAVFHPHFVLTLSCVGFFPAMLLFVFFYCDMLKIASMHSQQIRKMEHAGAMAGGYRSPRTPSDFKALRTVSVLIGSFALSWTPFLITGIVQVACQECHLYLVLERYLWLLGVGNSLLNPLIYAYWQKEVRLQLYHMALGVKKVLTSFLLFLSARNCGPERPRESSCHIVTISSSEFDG
Assay: Human GPR119 activation assay (cAMP, HTRF)
Format: cell-based
Conditions: 1 h; 10 nM; HEK293 cells transiently expressing human GPR119; relative to maximum effect of OEA; read-out: hGPR119 activation ability (cAMP assay) Relative Response % vs OEA
Label MET when Emax at 0.01 µM is at or above 300%; anything below gets NOT MET.

{"molecule": "CC(C)c1noc(N2CCC(CCCOc3cc(F)c(-c4nnc(C(C)C)o4)c(F)c3)CC2)n1 [Example 57]", "assigned-label": "MET"}
{"molecule": "CCc1nc(-c2c(F)cc(OCCCC3CCN(c4ncc(-c5noc(CC(C)C)n5)cn4)CC3)cc2F)no1 [Example 31]", "assigned-label": "NOT MET"}
{"molecule": "CCc1cnc(N2CCC(CCCOc3cc(F)c(-c4nnc(C)o4)c(F)c3)CC2)nc1 [Example 42]", "assigned-label": "NOT MET"}
{"molecule": "CC(C)c1nc(-c2c(F)cc(OCCCC3CCN(c4ncc(Cl)cn4)CC3)cc2F)no1 [Example 28]", "assigned-label": "NOT MET"}
{"molecule": "CC(C)c1nnc(-c2c(F)cc(OCCCC3CCN(c4ncc(C(F)(F)F)cn4)CC3)cc2F)o1 [Example 48]", "assigned-label": "MET"}
{"molecule": "CCc1cnc(N2CCC(CCCOc3cc(F)c(-c4noc(CCO)n4)c(F)c3)CC2)nc1 [Example 18]", "assigned-label": "MET"}
{"molecule": "CCCCCc1cnc(N2CCC(CCCOc3cc(F)c(-c4nnc(C(C)C)s4)c(F)c3)CC2)nc1 [Example 62]", "assigned-label": "NOT MET"}
